# target or test system: T1, E. coli-expressed recombinant human IL-13 (human, UniProt P35225 35-146)
# T1 construct: Untagged E. coli-expressed human IL-13; also called hIL-13; human IL13 (CA)
# T1 sequence (P35225 other isoform, or with tags, fused parts or gaps): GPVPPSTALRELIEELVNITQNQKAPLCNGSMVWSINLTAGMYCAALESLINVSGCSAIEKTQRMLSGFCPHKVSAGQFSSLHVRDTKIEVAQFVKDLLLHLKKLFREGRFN
# protocol summary: human IL-13 binding ELISA, CHO supernatant
measurement name: binding result

Request: Look at this binder and give its reported binding result. A2L2 (antibody, human IgG1, kappa, V domains shown, Humanised 6A1 combination, tested as CHO cell supernatant) VH: QVQLVQSGAEVKKPGSSVKVSCKASGFYIKDTYMHWVIQAPGQGLEWMGTIDPANGNTKYVPKFQGRVTITADESTSTAYMELSSLRSEDTAVYYCARSIYDDYHYDDYYAMDYWGQGTLVTVSS VL: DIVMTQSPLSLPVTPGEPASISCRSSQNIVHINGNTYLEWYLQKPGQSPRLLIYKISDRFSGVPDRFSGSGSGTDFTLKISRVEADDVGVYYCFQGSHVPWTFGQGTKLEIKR
Result: binds

Request: What about this binder? A3L2 (antibody, human IgG1, kappa, V domains shown, Humanised 6A1 combination, tested as CHO cell supernatant) VH: QVQLVQSGAEVKKPGSSVKVSCKASGFYIKDTYMHWVIQAPGQGLEWMGTIDPANGNTKYVPKFQGRVTITADTSTSTAYMELSSLRSEDTAVYYCARSIYDDYHYDDYYAMDYWGQGTLVTVSS VL: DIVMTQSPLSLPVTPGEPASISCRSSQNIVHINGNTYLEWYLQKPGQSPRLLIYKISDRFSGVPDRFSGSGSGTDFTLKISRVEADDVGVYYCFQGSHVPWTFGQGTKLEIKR
Result: binds

Request: What about this binder? A2L1 (antibody, human IgG1, kappa, V domains shown, Humanised 6A1 combination, tested as CHO cell supernatant) VH: QVQLVQSGAEVKKPGSSVKVSCKASGFYIKDTYMHWVIQAPGQGLEWMGTIDPANGNTKYVPKFQGRVTITADESTSTAYMELSSLRSEDTAVYYCARSIYDDYHYDDYYAMDYWGQGTLVTVSS VL: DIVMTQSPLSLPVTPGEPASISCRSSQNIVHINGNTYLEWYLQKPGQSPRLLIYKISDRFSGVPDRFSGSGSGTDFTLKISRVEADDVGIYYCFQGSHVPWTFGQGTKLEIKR
Result: binds
